Source of measurements: paper PMC5386672

test-readout: melting point

Please review the following examples before continuing.
- structure-smiles: "CN(C)CCCCNC(=O)Cc1cccc(Nc2nc(OCC3CCCCC3)c3nc[nH]c3n2)c1"
  melting point: "125 to 127 °C"
- structure-smiles: "Nc1ccc(Nc2nc(OCC3CCCCC3)c3[nH]cnc3n2)cc1"
  melting point: "228 to 230 °C"
- structure-smiles: "O=C(Cc1cccc(Nc2nc(OCC3CCCCC3)c3nc[nH]c3n2)c1)NCCCn1ccnc1"
  melting point: "192 to 193 °C"
- structure-smiles: "CNC(=O)c1cccc(Nc2nc(OCC3CCCCC3)c3nc[nH]c3n2)c1"
  melting point: "252 to 254 °C"
- structure-smiles: "NS(=O)(=O)Cc1cccc(Nc2nc(OCC3CCCCC3)c3nc[nH]c3n2)c1"
  melting point: "134 to 135 °C"

Pending molecule:
Query: Item under review: Nc1cccc(Nc2nc(OCC3CCCCC3)c3[nH]cnc3n2)c1 . Reported melting point?
Response: 117 to 118 °C (dec.)
